- ASSAY_SYSTEM: Tyrosine-protein kinase Blk (Homo sapiens)
- EXPERIMENT_NOTES: BLK kinase inhibitors, dose response, biochemical, Z'-LYTE FRET, direct format, recombinant human (AID 1671221)
- APPLIED_CONDITIONS: Z'-LYTE FRET peptide phosphorylation
pIC50: −log10 of the molar value.
OBSERVED_PROPERTY: pIC50

>>> measured_number("COc1cc2ncnc(Nc3cccc(Cl)c3)c2cc1OC")
5.94
